Target: T1, IL-2 receptor IL-2Rα/β/γ on human peripheral blood Treg cells (human, UniProt P01589 22-272; P14784 27-551; P31785 23-369)
T1 sequence (looked up) 1: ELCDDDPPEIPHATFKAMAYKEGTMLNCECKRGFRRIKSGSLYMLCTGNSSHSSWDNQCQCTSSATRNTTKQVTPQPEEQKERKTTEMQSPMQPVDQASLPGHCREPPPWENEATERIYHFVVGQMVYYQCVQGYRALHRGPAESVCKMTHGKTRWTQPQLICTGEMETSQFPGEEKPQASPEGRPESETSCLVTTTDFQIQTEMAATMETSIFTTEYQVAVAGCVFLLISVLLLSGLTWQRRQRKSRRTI
T1 sequence (looked up) 2: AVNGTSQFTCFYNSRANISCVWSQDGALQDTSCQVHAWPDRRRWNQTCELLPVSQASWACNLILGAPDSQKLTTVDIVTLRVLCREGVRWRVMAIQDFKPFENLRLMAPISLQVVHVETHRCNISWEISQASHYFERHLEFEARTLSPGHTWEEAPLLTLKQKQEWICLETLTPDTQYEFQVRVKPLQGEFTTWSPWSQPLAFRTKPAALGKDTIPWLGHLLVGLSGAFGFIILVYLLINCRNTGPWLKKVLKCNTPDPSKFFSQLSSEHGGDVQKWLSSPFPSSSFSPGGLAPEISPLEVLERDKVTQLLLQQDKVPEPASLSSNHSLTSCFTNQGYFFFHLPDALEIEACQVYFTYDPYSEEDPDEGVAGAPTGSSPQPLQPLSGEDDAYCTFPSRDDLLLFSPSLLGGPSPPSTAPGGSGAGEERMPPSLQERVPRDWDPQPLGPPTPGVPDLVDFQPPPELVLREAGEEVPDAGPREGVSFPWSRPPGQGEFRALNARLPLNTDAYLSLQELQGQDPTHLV
T1 sequence (looked up) 3: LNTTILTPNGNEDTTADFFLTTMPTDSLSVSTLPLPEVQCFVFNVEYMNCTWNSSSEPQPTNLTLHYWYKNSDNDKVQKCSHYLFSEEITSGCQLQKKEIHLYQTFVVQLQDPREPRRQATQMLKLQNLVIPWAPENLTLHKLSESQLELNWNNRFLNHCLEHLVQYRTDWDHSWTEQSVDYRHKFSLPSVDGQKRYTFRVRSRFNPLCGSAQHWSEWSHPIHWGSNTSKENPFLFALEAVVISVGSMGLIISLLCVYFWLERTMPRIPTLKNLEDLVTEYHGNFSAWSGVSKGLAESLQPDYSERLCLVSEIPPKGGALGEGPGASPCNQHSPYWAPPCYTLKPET
Assay: cell-based or functional assay
EXPERIMENTAL ENDPOINT: relative biological activity (STAT5 phosphorylation in human Treg cells) (%)

| BINDER | MEASURED RESULT |
| --- | --- |
| PEGylated IL-2-23 (ligand, mono-PEGylated with 20 kDa mPEG-butyraldehyde (sodium cyanoborohydride); site not stated, also called PEG-IL-2-23) MAPTSSSTKKTCLQLEHLLLDLQMILNGIQSMHIDATLYMPKKATELKHLQCLEEELKPLEEVLNLAQSKNFHLRPRDLISNINVIVLELKGSETTFMCEYADETATIVEFLNRWITFAQSIISTCT | 0.01 |
| PEGylated IL-2-10 (ligand, mono-PEGylated with 20 kDa mPEG-butyraldehyde (sodium cyanoborohydride); site not stated, also called PEG-IL-2-10) MAPTSSSTKKTQLQLEHLLLDLQMILQGINSYKNPKLTRMLTAKFYMPKKATELKHLQCLEEELKPLEEVLNGAQSKNFHLRPRDLISNINVIVLELKGSETTFMCEYADETATIVEFLNRWITFAQSIISTLT | 0.02 |
| IL-2-24 (N26Q/N29S/N88R) (ligand) MAPTSSSTKKTQLQLEHLLLDLQMILQGISNYKNPKLTRMLTFKFYMPKKATELKHLQCLEEELKPLEEVLNLAQSKNFHLRPRDLISRINVIVLELKGSETTFMCEYADETATIVEFLNRWITFAQSIISTLT | 0.2 |
| PEGylated IL-2-24 (ligand, mono-PEGylated with 20 kDa mPEG-butyraldehyde (sodium cyanoborohydride); site not stated) MAPTSSSTKKTQLQLEHLLLDLQMILQGISNYKNPKLTRMLTFKFYMPKKATELKHLQCLEEELKPLEEVLNLAQSKNFHLRPRDLISRINVIVLELKGSETTFMCEYADETATIVEFLNRWITFAQSIISTLT | 0.007 |
